# Procedure Text: Toxicity against mouse NIH/3T3 cells assessed as cell viability at 10 uM by trypan blue exclusion method
# Type: cell-based, NIH3T3
# Measurement Context: read-out: Activity
Observed Property: viability at 10 µM

Reported viability at 10 µM, molecule `CCCCCCCCNC(=O)/C(C#N)=C/c1cn(CCCN(C)C)c2ccccc12` : ____
> 98%

* * *

# Procedure Text: Inhibition of sheep brain dynamin 1 GTPase activity by malachite green GTPase assay
# Set-up: species or system Ovis aries
pIC50: −log10 of the molar value.
Rule: pIC50 under 4 gives not met, otherwise met.

Study these solved cases before continuing.
chem_smiles=Cc1c(/C=C(\C#N)C(=O)NCc2ccccc2)c2ccccc2n1CCN(C)C cat="not met"
chem_smiles=CCCCCCCCCCCCCCNC(=O)/C(C#N)=C/c1c(C)n(CCCN(C)C)c2ccccc12 cat=met
chem_smiles=Cc1cc2ccccc2n1CCN(C)C cat="not met"

Is pIC50 at least 4? Consider `CCCCCCCCCCCCCCNC(=O)/C(C#N)=C/c1c(C)n(CCN(C)C)c2ccccc12`
met

Is pIC50 at least 4? Consider `CCCCCCCCNC(=O)/C(C#N)=C/c1c(C)n(CCCN(C)C)c2ccccc12`
met

Is pIC50 at least 4? Consider `CN(C)CCCn1ccc2ccccc21`
not met

* * *

# System: U2OS
# Procedure Text: Toxicity against human U2OS cells assessed as effect on cell morphology after 30 mins
# Assay type: cell-based
# Measurement Context: 0.5 h
Observed Property: Activity

chem_smiles=CCCCCCCCNC(=O)/C(C#N)=C/c1cn(CCCN(C)C)c2ccccc12 assay_system=U2OS result=Non-toxic
chem_smiles=CCCCCCCCCCNC(=O)/C(C#N)=C/c1c(C)n(CCN(C)C)c2ccccc12 assay_system=U2OS result=Non-toxic
chem_smiles=CCCCCCCCNC(=O)/C(C#N)=C/c1c(C)n(CCN(C)C)c2ccccc12 assay_system=U2OS result=Non-toxic
chem_smiles=CCCCCCCCNC(=O)/C(C#N)=C/c1c(C)n(CCCN(C)C)c2ccccc12 assay_system=U2OS result=Non-toxic

Consider the additional compound presented here.
Reported Activity, compound `CCCCCCNC(=O)/C(C#N)=C/c1c(C)n(CCCN(C)C)c2ccccc12` : ____
Non-toxic

* * *

# Procedure Text: Toxicity against human fibroblasts assessed as cell viability at 10 uM by trypan blue exclusion method
# Type: cell-based, Fibroblast
# Measurement Context: read-out: Activity
Observed Property: viability at 10 µM

Reported viability at 10 µM, compound `CCCCCCCCNC(=O)/C(C#N)=C/c1cn(CCCN(C)C)c2ccccc12` : ____
> 98%

* * *

Parameter: IC50. Scope: all listed entries.
# Procedure Text: Inhibition of sheep brain dynamin 1 GTPase activity by malachite green GTPase assay
# Design: species or system Ovis aries
# output: bare number, implied unit µM

The examples below pair each entry with its known result.
molecule=Cc1c(/C=C(\C#N)C(=O)NC2CCCCC2)c2ccccc2n1CCN(C)C u=µM quantitative_result=300
molecule=CCCCCCCCNC(=O)/C(C#N)=C/c1cn(CCCN(C)C)c2ccccc12 u=µM quantitative_result=1.3
molecule=CN(C)CCCn1cc(CCC(=O)O)c2ccccc21 u=µM quantitative_result=143
molecule="CN(C)CCCn1cc(C2=C(c3c[nH]c4ccccc34)C(=O)NC2=O)c2ccccc21 [GF-109203]" u=µM quantitative_result=100
molecule=CCCCCCNC(=O)/C(C#N)=C/c1c(C)n(CCN(C)C)c2ccccc12 u=µM quantitative_result=7.69

Consider the additional molecule presented here.
Reported IC50, molecule `CCCCCCNC(=O)/C(C#N)=C/c1c(C)n(CCCN(C)C)c2ccccc12` : ____
6.62
